Entries and their community biomass OD578
# System: Com21 synthetic gut community
# experimental_details: community biomass OD578 after 24 h drug treatment relative to untreated (fraction of untreated control); higher = more community growth
# test_parameters: drug pretreatment concentration 160 µM; community: Com21 (Com20 + E. coli ED1a)
readout_label: community biomass OD578

compound=CN(C)C(=N)NC(=N)N value_observed=1.03
compound=C[C@]1(Cn2ccnn2)[C@H](C(=O)O)N2C(=O)C[C@H]2S1(=O)=O value_observed=0.722
compound=CN(C)CCCN1c2ccccc2Sc2ccc(Cl)cc21 value_observed=0.813
compound="CCOC1O[C@H]([C@@H](COCc2ccccc2)OCc2ccccc2)[C@H](OCc2ccccc2)[C@H]1O (some centres undefined) [Tribenoside]" value_observed=0.947
compound=Cc1c(N(C)CS(=O)(=O)O)c(=O)n(-c2ccccc2)n1C value_observed=0.994
compound=CNCCCC1c2ccccc2C=Cc2ccccc21 value_observed=0.956
compound="CC(=O)N1CCN(c2ccc(OCC3COC(Cn4ccnc4)(c4ccc(Cl)cc4Cl)O3)cc2)CC1 (centres undefined)" value_observed=0.731
compound=O=c1[nH]c(=O)n([C@H]2C[C@H](O)[C@@H](CO)O2)cc1F value_observed=0.88
compound=Clc1ccc(Cn2c(CN3CCCC3)nc3ccccc32)cc1 value_observed=0.964
